Test: in vitro
Assay type: cell-based, murine
Conditions: mouse, 3T3 fibroblasts, 72 hours; separate assays separated by semicolons; read-out: Mammalian cell CC50
# key: entry, value: CC50

A selection of reference data follows.
compound: N=C(N)c1ccc(OCCCCCOc2ccc(C(=N)N)cc2)cc1
CC50: > 50 µM

compound: CN(C)c1ccc(O)c2c1CC1CC3C(N(C)C)C(O)=C(C(N)=O)C(=O)C3(O)C(O)=C1C2=O.Cl (stereo not shown)
CC50: > 50 µM

compound: O=C(Cn1ccnc1[N+](=O)[O-])NCc1ccccc1
CC50: > 25 µM

Next up:
**Query** Please report the recorded CC50 for `Oc1ncnc2[nH]ncc12` .
**Result** > 50 µM

====

Test system: T. cruzi (Tulahuen strain)
Assay: microbe, parasite or virus in culture
Type: cell-based, Trypanosoma cruzi
Settings: Trypanosoma cruzi, TULAHUEN, Fibroblast, 120 h, 10 uM, Table S2; read-out: T. cruzi % growth @ 10 uM (Amastigotes)
recordedEndpoint: activity at 10 µM

A selection of reference data follows.
compound: CCN(CCCCOC(=O)c1ccc(OC)c(OC)c1)C(C)Cc1ccc(OC)cc1 (centres unmarked)
activity at 10 µM: 4.1%

compound: O=c1c(O)c(-c2ccc(O)c(O)c2)oc2c(OC3OC(CO)C(O)C(O)C3O)c(O)cc(O)c12 (centres unmarked)
activity at 10 µM: 17.7%

compound: CC(=O)OC1CC2C(C)(C)C(=O)CCC2(C)C2CCC3(C)C(c4ccoc4)OC(=O)C4OC43C12C (centres unmarked) [DIHYDROGEDUNIN]
activity at 10 µM: 5.8%

**Query** Quick check: activity at 10 µM on T. cruzi (Tulahuen strain), item `Clc1ccc2c(c1)C(N1CCNCC1)=Nc1ccccc1O2` ?
**Result** 11.7%

**Query** Quick check: activity at 10 µM on T. cruzi (Tulahuen strain), item O=C(/C=C(/O)c1ccccc1)c1ccccc1O [2',beta-DIHYDROXYCHALCONE] ?
**Result** 10%
